testName: Durability test of poly(allyl diglycol carbonate) lens impregnated with compound in silicone oil, Example 10
Type: physicochemical
experimentalContext: impregnated from silicone oil
assayEndpoint: Initial color density
Keep it simple and answer with nothing but the number.

Example entries and their recorded answers appear below.
# compound, Initial color density
rows = [
    ("CCCCC12CC3CC(C1)C1(c4c(n(C)c5ccccc45)C(C)=C4C(=O)N(CC(=O)OCCC#N)C(=O)C41)C(Cl)(C3)C2 (stereo not shown)", 0.56),
    ("COC12CC3CC(C1)C1(c4oc5ccccc5c4C(C)=C4C(=O)N(CC(=O)OC(C)(C)CCC#N)C(=O)C41)C(C3)C2 (stereo not shown)", 0.63),
    ("CC1=C2C(=O)N(C[N+](=O)[O-])C(=O)C2C2(c3sc(C)cc31)C1CC3CC(C1)CC2C3 (stereo not shown)", 0.56),
]

Okay, next one:
So what does the record say about Initial color density for COC(=O)CN1C(=O)C2=C(C)c3ccsc3C3(C4CC5CC(C4)CC3C5)C2C1=O (stereo not shown) ? 0.5

###

testName: Xenon long-life fadeometer test of photochromic poly(methyl methacrylate) cast film (initial coloration density, T1/2, λmax), Example 9;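 note: 0.5 part by weight compound dispersed with PMMA in 100 parts benzene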
Type: physicochemical
experimentalContext: poly(methyl methacrylate) cast film 0.1 mm; initial coloration density (absorbance); xenon fadeometer
assayEndpoint: Initial color density
Keep the answer to the number alone.

I'd like to know its Initial color density. The compound in question is CCCCC12CC3CC(C1)C1(c4c(OC)cc(OC)cc4C(c4ccccc4)=C4C(=O)N(C(C)(C)C#N)C(=O)C41)C(C3)C2 (stereo not shown) [(17)] 0.49

What does the data say about its Initial color density? Entry: CC1=C2C(=O)N(CC(=O)OCC(C)C)C(=O)C2C2(CC3CCC2C3)c2sc(Br)cc21 (stereo not shown) [(19)] 0.47

Query: Initial color density; subject: CCCCC12CC3CC(C1)C1(c4c(n(C)c5ccccc45)C(C)=C4C(=O)N(CC(=O)OCCC#N)C(=O)C41)C(Cl)(C3)C2 (stereo not shown) [(29)] 0.71

For CC1=C2C(=O)N(c3ccccc3)C(=O)C2C2(CC3CCC2C3)c2sc(Br)cc21 (stereo not shown) [(97)] , what is its reported Initial color density? 0.31

Could you share which Initial color density value was measured for CC1=C2C(=O)N(CCc3ccc4ccccc4c3)C(=O)C2C2(CC3CCC2C3)c2sc(Br)cc21 (stereo not shown) [(3)] ? 0.42

Tell me the measured Initial color density of CCN1C(=O)C2=C(C)c3ccsc3C3(C4CC5CC(C4)CC3C5)C2C1=O (stereo not shown) [(X), reference compound] , please. 0.7

# get_value(readout='Initial color density', item= CCCCC1=C2C(=O)N(CC(C)(C)CCOC(=O)CBr)C(=O)C2C2(CC3CCC2C3(C)C)c2sc3c(c21)CCCC3 (stereo not shown) [(21)] ) 0.52

###

Fading speed values by entry
testName: Fading speed of poly(methyl methacrylate) cast film after mercury lamp irradiation, Example 9
Format: physicochemical
experimentalContext: mercury lamp 60 seconds at 20°±1° C., time to half absorbance after irradiation stopped
Value expressed in s; do not type the unit.

Here is how some molecules turned out for Fading speed.
# molecule, uom, Fading speed
rows = [
    ("CC1=C2C(=O)N(CCc3ccc4ccccc4c3)C(=O)C2C2(CC3CCC2C3)c2sc(Br)cc21 (stereo not drawn) [(3)]", "s", 71),
    ("CC1=C2C(=O)OC(=O)C2C2(CC3CCC2C3)c2sc(Br)cc21 (stereo not drawn) [(7)]", "s", 21),
    ("CC1=C2C(=O)N(CC#N)C(=O)C2C2(c3sccc31)C1CC3CC(C1)CC2C3 (stereo not drawn) [(2)]", "s", 26),
    ("COC(=O)CN1C(=O)C2=C(C)c3ccsc3C3(C4CC5CC(C4)CC3C5)C2C1=O (stereo not drawn) [(1)]", "s", 39),
    ("CC1=C2C(=O)N(CCCCC(=O)OCCc3cccc4ccccc34)C(=O)C2C2(c3sccc31)C1CC3CC(C1)CC2C3 (stereo not drawn) [(6)]", "s", 76),
]

Please examine the following record next.
Any idea what its Fading speed is? The molecule is CCC(C(=O)OCCc1ccc2ccccc2c1)N1C(=O)C2=C(C)c3ccsc3C3(C4CC5CC(C4)CC3C5)C2C1=O (stereo not drawn) [(5)] 58
